- Tested on: RAW-Dual (murine macrophage reporter line)
- assayExplanation: NF-kB reporter (SEAP) activity fold change vs agonist alone; higher = enhanced NF-kB activity
- studyConditions: modulator concentration 10 µM; agonist: MPLA […]

# compound, NF-kB reporter
measured = [
    ("Cn1nc(CNC(=O)c2cccc3ccccc23)cc1C1CC1", 0.963),
    ("CC(C)CNC(=O)C(=O)Nc1ccc(C(C)C)cc1", 1.01),
    ("CCOC(=O)N1CCC(=C2c3ccc(Cl)cc3CCc3cccnc32)CC1", 0.953),
    ("COc1ccc(CNCc2ccc3ccccc3c2)cc1OC", 0.943),
    ("COc1ccc(CCNc2nnc(Cc3ccc(Cl)cc3)c(=O)[nH]2)cc1OC", 0.877),
    ("CCN1CCCC1CNC(=O)c1cc(S(N)(=O)=O)ccc1OC (stereo not drawn)", 0.992),
    ("CN(C)CCC(c1ccc(Br)cc1)c1ccccn1.O=C(O)/C=C\\C(=O)O (stereo not drawn)", 0.939),
    ("Cc1cc(C(=O)Nc2ccc(-n3nnn(C)c3=O)cc2)c(C)o1", 0.809),
    ("Cc1cc(-c2ccccc2)nnc1NCCN1CCOCC1.Cl.Cl", 1),
    ("CCN1C(=O)CC(NCCc2ccc(S(N)(=O)=O)cc2)C1=O (stereo not drawn)", 0.905),
    ("O=c1sn(-c2cccc3ccccc23)c(=O)n1Cc1ccccc1", 0.653),
    ("COc1cc(C(C)=O)ccc1OCCCN1CCC(c2noc3cc(F)ccc23)CC1", 0.924),
    ("CC1(C)Cc2cccc(OCC(=O)NCc3ccccn3)c2O1", 0.986),
    ("NS(=O)(=O)C#Cc1ccccc1", 0.159),
    ("O=C(CCc1csc(NC(=O)c2ccco2)n1)Nc1ccc(Cl)cc1", 0.973),
    ("CC(O)(CNC(=O)CSc1ccc(F)cc1)c1ccc(-c2ccccc2)cc1 (stereo not drawn)", 0.935),
    ("CCOC(=O)C(CCc1ccccc1)NC1CCc2ccccc2N(CC(=O)O)C1=O.Cl (stereo not drawn)", 1.05),
    ("CC(C)NCC(O)COCCOc1ccc(C(C)(C)C)cc1.Cl (stereo not drawn)", 1.13),
    ("O=C(Cn1c(C(F)(F)F)nc2ccccc21)c1ccc(OC(F)F)cc1", 0.884),
    ("O=C1CSC(=S)N1N=Cc1ccc(O)c([N+](=O)[O-])c1", 0.97),
    ("CCCCC(=O)N(Cc1ccc(-c2ccccc2-c2nnn[nH]2)cc1)[C@H](C(=O)O)C(C)C [Prestw-1735]", 1.05),
    ("Nc1nc(=O)n([C@@H]2CS[C@H](CO)O2)cc1F", 1.21),
    ("C[C@@H]1CCN(C(=O)CC#N)C[C@@H]1N(C)c1ncnc2[nH]ccc12.O=C(O)CC(O)(CC(=O)O)C(=O)O", 0.885),
    ("CC(C)(C)c1cc(NCc2ccccn2)n2ncc(-c3ccc(Cl)cc3)c2n1", 0.79),
    ("C=Cc1c(C)c2cc3nc(cc4[nH]c(cc5nc(cc1[nH]2)C(C)=C5CCC(=O)O)c(CCC(=O)OC)c4C)[C@@]1(C)C3=CC=C(C(=O)OC)C1C(=O)OC (stereo partly drawn) [Prestw-1105]", 1.17),
    ("CC1CC(OC(=O)C(O)c2ccccc2)CC(C)(C)C1 (stereo not drawn)", 1.11),
    ("O=c1[nH]c2ccccc2n1CCN1CCN(c2cccc(C(F)(F)F)c2)CC1", 0.448),
    ("CN1CCN(C2=NC(=O)C(=Cc3ccc(Cl)cc3Cl)S2)CC1", 1.15),
    ("COc1cccc2c1C(=O)c1c(O)c3c(c(O)c1C2=O)C[C@@](O)(C(=O)CO)C[C@@H]3O[C@H]1C[C@H](N)[C@H](O)[C@H](C)O1 [Prestw-438]", 0.112),
    ("CS(=O)(=O)N1CCN(Cc2cc3nc(-c4cccc5[nH]ncc45)nc(N4CCOCC4)c3s2)CC1", 2.94),
    ("CCC(c1ccc(O)cc1)C(CC)c1ccc(O)cc1 (stereo not drawn) [Prestw-699]", 1.02),
    ("CCOC(=O)c1ccccc1NC(=O)CN(c1cc(Cl)ccc1OC)S(C)(=O)=O", 0.897),
    ("O=C(Nc1cc(C(F)(F)F)cc(C(F)(F)F)c1)c1c(F)cccc1F", 0.911),
    ("CCOC(=O)C1=C(C)OC(N)=C(C#N)C1c1cc(C)c(OC)cc1C (stereo not drawn)", 0.898),
    ("O=c1cc2c(nn1CC1CCN(CC3(O)CCOCC3)CC1)CCCC2", 0.918),
    ("COc1ccnc(CS(=O)c2nc3ccc(OC(F)F)cc3[nH]2)c1OC (stereo not drawn)", 0.879),
    ("CN(Cc1cnc2nc(N)nc(N)c2n1)c1ccc(C(=O)N[C@@H](CCC(=O)O)C(=O)O)cc1", 0.764),
    ("COc1ccccc1C1C(C(C)=O)=C(O)C(=O)N1CCN(C)C (stereo not drawn)", 0.947),
    ("CCCCOc1cc(C(=O)NCCN(CC)CC)c2ccccc2n1.Cl", 1.04),
    ("Br.NC(=O)C(c1ccccc1)(c1ccccc1)[C@@H]1CCN(CCc2ccc3c(c2)CCO3)C1", 1.53),
    ("COC(CNC(=O)c1cc2ccccc2[nH]1)c1ccc(Cl)s1 (stereo not drawn)", 1.12),
    ("CCN(CC)c1ccc(C=C(C#N)C#N)c(OC(C)=O)c1", 0.884),
    ("C=CCc1ccccc1OCC(O)CNC(C)C.Cl (stereo not drawn)", 1.06),
]

---

- Test system: RAW-Dual (murine macrophage reporter line)
- assayExplanation: NF-kB reporter (SEAP) activity fold change vs agonist alone; higher = enhanced NF-kB activity
- studyConditions: modulator concentration 10 µM; agonist: LPS 0.1 ug/mL

# compoundStructure, NF-kB reporter
data = [
    ("O=C(NCC1CCN(C(=O)c2ccncc2)CC1)c1ccc(Oc2ccccc2)cc1", 0.954),
    ("Cn1c(=O)cc(N2CCC[C@@H](N)C2)n(Cc2cc(F)ccc2C#N)c1=O.O=C(O)CCC(=O)O", 0.119),
    ("CCCCCn1c(=O)[nH]c2cc(C(=O)N3CCN(C(=O)OCC)CC3)ccc2c1=O", 1.09),
    ("CN(C)C/C=C/C(=O)Nc1cc2c(Nc3ccc(F)c(Cl)c3)ncnc2cc1O[C@H]1CCOC1", 0.28),
    ("CCOc1ccc(-c2nc3c(c(C)nn3-c3ccccc3)c3cc(OC)c(OC)cc23)cc1", 0.934),
]

---

- Test system: RAW-Dual (murine macrophage reporter line)
- assayExplanation: NF-kB reporter (SEAP) activity fold change vs agonist alone; higher = enhanced NF-kB activity
- studyConditions: modulator concentration 10 µM; agonist: LPS 0.1 ug/mL
metric: NF-kB reporter

# molecule, obsValue
measured = [
    ("CC(C)c1ccc2oc3nc(N)c(C(=O)O)cc3c(=O)c2c1", 1.23),
    ("COc1ccc(CN2CCN(C(c3ccc(F)cc3)c3ccc(F)cc3)CC2)c(OC)c1OC.Cl.Cl", 0.927),
    ("Cc1cc(-n2cc(C(=O)N3CCOCC3)nn2)ccc1F", 1.1),
    ("Cc1occc1C(=O)Nc1ccc(F)c(F)c1", 0.998),
    ("Cc1nc(Nc2ncc(C(=O)Nc3c(C)cccc3Cl)s2)cc(N2CCN(CCO)CC2)n1.O", 0.307),
    ("COc1cccc2c1C(=O)c1c(O)c3c(c(O)c1C2=O)C[C@@](O)(C(=O)CO)C[C@@H]3O[C@H]1C[C@H](N)[C@H](O)[C@H](C)O1 [Prestw-438]", 0.0747),
    ("CC(=O)C1CCC2C3CC=C4CC(O)CCC4(C)C3CCC12C (stereo unspecified)", 1.1),
    ("Cc1ccc(OCC(=O)NN=Cc2cc(Br)cc(Br)c2O)c([N+](=O)[O-])c1", 0.908),
    ("Cc1cc(C)c(NC(=O)C2C3CCC4C(CCC32)C4(Cl)Cl)c(C)c1 (stereo unspecified)", 1.03),
    ("CC(C)C(=O)c1c(C(C)C)nn2ccccc12", 1.2),
    ("COc1ccc(C2(C#N)CCC(C(=O)O)CC2)cc1OC1CCCC1 (stereo unspecified)", 1.16),
]

---

- Test system: RAW-Dual (murine macrophage reporter line)
- assayExplanation: IRF reporter (Lucia luciferase) activity fold change vs agonist alone; higher = enhanced IRF activity
- studyConditions: modulator concentration 10 µM; agonist: 3'3'-cGAMP 10 ug/mL

# compound, IRF reporter
records = [
    ("CC(NC(=O)C(=O)NN=Cc1ccc(Cl)cc1Cl)c1ccccc1 (stereo not given)", 1.22),
    ("CCOC(=O)c1ccccc1NC(=O)CN(c1cc(C)ccc1OC)S(C)(=O)=O", 1.01),
    ("O=S(=O)(c1ccc(-n2cccn2)cc1)N1CC(n2cc(C3CC3)nn2)C1", 0.966),
    ("CC(C)(C(=O)O)c1ccc(C(O)CCCN2CCC(C(O)(c3ccccc3)c3ccccc3)CC2)cc1.Cl (stereo not given)", 0.924),
    ("CC1ON(c2ccc(Cl)c(Cl)c2)C(=O)NC1=O (stereo not given)", 1.03),
]
